The reported numbers originate from PubChem BioAssay (NCI).

Test system: K-562 leukemia
Test: NCI tumour cell line growth inhibition, 48 h
Measure Name: TGI

Some solved entries appear below for comparison.
CCn1c(-c2cc3ccccc3cc2O)nn(C(=O)c2c(Cl)cccc2Cl)c1=S; > 50 µM
Cc1ccc2oc(=O)c(C(=O)Nc3nc(C45CC6CC(CC(C6)C4)C5)cs3)cc2c1; > 100 µM
O=C(N/N=C(/COc1ccc([N+](=O)[O-])cc1)N=Cc1ccncc1)c1ccncc1; > 100 µM
Nc1ccn(C2OC(COC(=O)C34CC5CC(CC(C5)C3)C4)C(O)C2O)c(=O)n1 (configuration not stated); > 100 µM

Give TGI for each of the items listed below.
1. CCN(CC)CCCNC(=O)c1c2c(n3ccccc13)C(=O)c1ncccc1C2=O
2. COc1cccc(NC(=O)c2sc3nc4c(cc3c2N)C(=O)CCC4)c1

Output:
1. > 100 µM
2. > 100 µM

// each listed compound needs a value for TGI
1. Cc1cccc(C)c1NC(=O)Nc1ccc(S(N)(=O)=O)cc1
2. O=C(Cc1ccccc1)Nn1c(-c2ccccc2)nc2ccccc2c1=O
3. CC(=O)On1c(-c2ccccc2-c2nc3ccccc3n2OC(C)=O)nc2ccccc21
4. CCN(CC)CCNC(=O)c1cn2c(ccc3sc4ccccc4c(=O)c32)n1
5. CCOC(=O)CC1C(COC(=O)NC)OC(n2cnc3c(NC(=O)Nc4ccccc4)ncnc32)C1O[Si](C)(C)C(C)(C)C (configuration not stated)
6. COC(=O)c1cnc(Cl)cn1

Output:
1: > 100 µM; 2: > 100 µM; 3: > 100 µM; 4: 36.8 µM; 5: > 100 µM; 6: > 100 µM

Please state, for each entry, its recorded TGI.
1. FC(F)(F)c1cccc(-c2nc3ccccc3c3c2[C@@]2(N4CCCC4)CCCC[C@@H]32)c1
2. CC(C)(C)C(=O)OCC1CCC(n2cnc3c(=O)[nH]c(N)nc32)O1 (configuration not stated)
3. COc1ccc2nc3cc([N+](=O)[O-])ccc3c(NCCCN(C)C)c2c1
4. COc1cccc(C2c3cc4c(cc3OC(N3CCCC3)C2C)OCO4)c1O (configuration not stated)
5. O=C1OC(O)C(Oc2c(Cl)cccc2Cl)=C1Cl (configuration not stated)
6. CCOC(=O)c1sc2[n+](c1C)C(=O)/C(=C/c1ccc([N+](=O)[O-])cc1)S2
7. CCOC(=N)CC(=O)c1ccccc1

Output:
1: > 100 µM; 2: > 100 µM; 3: 0.183 µM; 4: 57.8 µM; 5: 48 µM; 6: 83.4 µM; 7: > 100 µM

Please state, for each entry, its recorded TGI.
1. O=C(O)Cc1ccc2[nH]c(O)c(C3=Nc4ccccc4C3=O)c2c1
2. NC(=O)c1cccc(Nc2nccc(Nc3cccc4[nH]ncc34)n2)c1
3. O=C(NCc1cccc2ccccc12)N/N=C\c1ccc(Cl)cc1
4. CC(=O)NC1=C[C@@H]([C@H]2COC(C)(C)O2)OC1=O
5. C[N+](C)(C)CC(=O)N/N=C(\C(=O)NC1=C(Cl)C(=O)c2ccccc2C1=O)C(C#N)c1csc(-c2ccc([N+](=O)[O-])cc2)n1 (configuration not stated)
6. S=C(c1c[nH]c2ccccc12)N1CCN(Cc2ccccc2)CC1
7. O=C1Nc2ccc(Cl)cc2/C1=C\c1c(Cl)nc2sccn12
8. NC1=CN2c3ccccc3N(CC(=O)O)C2C=C1 (configuration not stated)

Output:
1: > 100 µM; 2: > 25 µM; 3: > 100 µM; 4: > 100 µM; 5: > 100 µM; 6: > 100 µM; 7: > 100 µM; 8: > 100 µM

Batch: TGI for all items listed.
1. CCCCCCCCCCCCCCCCOC[C@@H](COC(c1ccccc1)(c1ccccc1)c1ccccc1)O[P+](=S)OC (some centres not stated)
2. CC[N+]1(C)CCC(O)(c2ccc(OC)cc2)C(C(=O)c2ccc(OC)cc2)C1 (configuration not stated)

Output:
1: 41.8 µM; 2: > 22.4 µM

Each of the following entries comes with a recorded value; kindly state TGI for each.
1. O=C1C(Cl)C(c2ccccc2O)N1n1cnc2ccccc2c1=O (configuration not stated)
2. Clc1ccc(C2Nc3ccccc3C3=NCCN32)cc1 (configuration not stated)

Output:
1: > 100 µM; 2: 46.2 µM

// for each compound below, give its TGI
1. Cc1cn([C@@H]2O[C@H](CO[Si](C)(C)C(C)(C)C)[C@]3(O[C@H]3C(=O)NN)[C@H]2O[Si](C)(C)C(C)(C)C)c(=O)[nH]c1=O
2. CC(=O)OC1CC2C(C)(C)C(=O)C=C[C@]2(C)C2CCC3(C)C(=CC(=O)C3c3ccoc3)[C@]12C (some centres not stated)
3. COc1ccc2cc(CN3CCC(C4CCNCC4)CC3)ccc2c1
4. CCOC(=O)CNc1nc(=O)c2c(=O)oc(Cl)cc2o1
5. Cc1cc(CC(C)CC(C)(C)C)n(O)c(=O)c1 (configuration not stated) (tested in a mixture with another compound)
6. O=C1CC(c2cccc(Br)c2)n2cccc21 (configuration not stated)
7. Cc1cc(S(=O)(=O)Nc2nc(N)nc(N(C)C)n2)c(SCC(=O)O)cc1Cl
8. O=c1c(=O)c2c(Br)sc(Br)c2c1=O

Output:
1. 7.17 µM
2. > 100 µM
3. 3.22 µM
4. 24.4 µM
5. 15.2 µM
6. > 100 µM
7. > 10 µM
8. 51 µM

I have 3 compounds here; please give me TGI for each one.
1. COc1cc2c(cc1OC)C1(COc3cc(O)c(O)c(O)c3C1=O)C2 (configuration not stated)
2. N#CCN/C=C\C(=O)c1ccc(Cl)cc1
3. O=S1Nc2c(Cl)cc(Cl)c3c(Cl)cc(Cl)c(c23)N1

Output:
["> 50 µM", "> 100 µM", "> 100 µM"]

###

Tested on: PC-3 prostate
Test: NCI tumour cell line growth inhibition, 48 h
Measure Name: TGI

CCOC(=O)C(NC(=O)c1ccccc1)(N1CCOCC1)C(F)(F)F (stereo not drawn); > 100 µM

For every item in the list below, what is its measured TGI?
1. CN(Cc1cc(Cl)cc(Cl)c1)CC(C(=O)c1ccccc1)c1ccccc1 (stereo not drawn)
2. COC(=O)Cc1ccc(Oc2cnc3cc(F)c(F)cc3n2)cc1
3. COc1nc(N)nc2c1ncn2C1OC(CO)C(O)C1O (stereo not drawn)
4. NC(=O)c1cccc(Nc2nccc(Nc3cccc4[nH]ncc34)n2)c1

Output:
1: 29.3 µM; 2: > 100 µM; 3: > 5000 µM; 4: > 25 µM

Report TGI for every entry below.
1. O=CC12C3CCC1C2C(=O)C3 (stereo not drawn)
2. COc1cc2cc(C(=O)N3CC(CCl)c4c3cc(N)c3ccccc43)[nH]c2c(OC)c1OC (stereo not drawn)
3. CC1=C(C(=O)c2ccccc2)C23C(=O)N(c4ccccc4)C(=O)C2=C(O)C=CC3(O)N1 (stereo not drawn)

Output:
["> 100 µM", "< 0.0114 µM", "> 100 µM"]

###

Test system: HCT-15 colon
Assay: NCI tumour cell line growth inhibition, 48 h
Measure Name: TGI

O=C(NCc1cccc2ccccc12)N/N=C\c1ccc(Cl)cc1; > 100 µM
Cc1cn([C@@H]2O[C@H](CO[Si](C)(C)C(C)(C)C)[C@]3(O[C@H]3C(=O)NN)[C@H]2O[Si](C)(C)C(C)(C)C)c(=O)[nH]c1=O; 14.8 µM
CN(C)C(=O)OC(Cn1cncn1)(Cn1cncn1)c1ccc(Cl)cc1Cl; > 100 µM
O=Cc1ccc(-c2ccc(-c3nc4ccccc4o3)cc2)o1; 53.4 µM
COc1ccc2c(c1)CC[C@H](O)/C2=C/c1cc(OC)c(OC)c(OC)c1; > 100 µM

For every item in the list below, what is its measured TGI?
1. Cc1cc(CC(C)CC(C)(C)C)n(O)c(=O)c1 (centres undefined) (tested in a mixture with another compound)
2. Cc1cc(Cl)ccc1NC(=O)C(=O)C(C(=O)c1ccc2ccccc2c1)C1OC(=O)c2ccccc21 (centres undefined)

Output:
1: > 100 µM; 2: 50.9 µM

Field: TGI. Fill in for each record below.
1. NC1=CN2c3ccccc3N(CC(=O)O)C2C=C1 (centres undefined)
2. N#Cc1c(-c2ccccc2)[nH]c(=O)n(C2OC(CO)C(O)C(O)C2O)c1=O (centres undefined)

Output:
> 100 µM
> 100 µM

###

Tested on: HOP-92 NSCLC
Assay: NCI tumour cell line growth inhibition, 48 h; in the data active = GI50 below about 0.43 µM; inactive = the rest
Parameter call: string, one of active, inactive

Example results:
CCCCCCCCCCC1OC([C@@H](O)CC[C@H](O)C2CC[C@@H](CCCCCCCC(O)CC3=CC(C)OC3=O)O2)CCC1O (some centres not stated); inactive
COc1cc(-c2nc(-c3nc4ccccc4[nH]3)cc3c2[nH]c2ccccc23)cc(OC)c1OC; inactive
Cn1c2ccc(Br)cc2c2c3c(c4c5ccccc5[nH]c4c21)C(=O)N(O)C3=O; active
Cc1cc(N2CCSCC2)nc(NC2CCCC(Nc3ccnc4cc(Cl)ccc34)C2)n1 (configuration not stated); inactive
COC(=O)c1cc(O)c2c(c1C(=O)OC)C[C@H]1[C@@H]3CC=C4C[C@@H](O)CC[C@]4(C)[C@H]3CC[C@]21C; inactive

Input: Given CCOC(=O)CC1C(COC(=O)NC)OC(n2cnc3c(NC(=O)Nc4ccccc4)ncnc32)C1O[Si](C)(C)C(C)(C)C (configuration not stated) , state the outcome it received in this test.
Output: inactive

Input: Record lookup: outcome of this test for COc1nc(N)nc2c1ncn2C1OC(CO)C(O)C1O (configuration not stated) ?
Output: inactive
